pest or weed control at 250 g/ha for assorted molecules
Tested on: redroot pigweed (Amaranthus retroflexus)
Experiment: Test G Pre-Emergence Protocol
Type: in vivo
Conditions: Amaranthus retroflexus, pre-emergence, 312 h, 250 g ai/ha, evaluated after 13 days, read-out: Pigweed, Redroot damage rating (100=total damage to plant; 0=no damage to plant)

>>> print(df.to_string())
                                   molecule  test_value
0  CN1CC(c2cc(C#N)cc(OC(F)(F)F)c2)C(C(=O)Nc2cccc(F)c2F)C1=O (stereo not shown)          0%

Data point: Cc1cc(C#N)cc(C2CN(C)C(=O)C2C(=O)Nc2cccc(F)c2F)c1 (stereo not shown) ; pest or weed control at 250 g/ha = 30%

Data point: Cc1cscc1NC(=O)[C@@H]1C(=O)N(C)C[C@H]1c1ccc(C(F)(F)F)cc1 (racemic) ; pest or weed control at 250 g/ha = 70%

Data point: Cc1ccc([C@H]2CN(C)C(=O)[C@@H]2C(=O)Nc2ccc3cccnc3n2)cc1 (racemic) ; pest or weed control at 250 g/ha = 0%
